# experimental-system: T1, recombinant mature dimeric myostatin (human and mouse (mature sequences 100% …, UniProt O08689 268-376))
# T1 sequence: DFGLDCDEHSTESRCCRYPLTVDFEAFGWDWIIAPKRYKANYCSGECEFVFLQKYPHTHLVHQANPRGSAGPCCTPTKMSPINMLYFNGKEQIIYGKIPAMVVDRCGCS
# assay-protocol: cell-based or functional assay
What Mean IC50, A204 in vitro activity assay was measured for each of the following?
Numbers only, in nM.

Provide each entry's Mean IC50, A204 in vitro activity assay from the list below.
1. H2L2-C91S_V102N (antibody, V domains shown) VH: QVQLVQSGAEVKKPGASVKVSCKASGYSFTGYFMHWVRQAPGQGLEWMGNIYPYNGVSNYNQRFKARVTMTTDTSTSTAYMELRSLRSDDTAVYYCARRYYYGTGPADWYFDNWGQGTLVTVSS VL: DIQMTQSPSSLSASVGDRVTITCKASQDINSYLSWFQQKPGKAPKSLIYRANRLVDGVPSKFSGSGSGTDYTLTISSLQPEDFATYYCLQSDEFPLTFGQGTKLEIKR
2. 10B3 chimera (antibody, human IgG1, V domains shown, 10B3 variable regions on human IgG1/k wild type constant regions; also called HCLC; HcLc) VH: EVQLQQSGPELVKPGASVKISCKASGYSFTGYFMHWVKQSHGNILDWIGNIYPYNGVSNYNQRFKAKATLTVDKSSSTAYMELRSLTSEDSAVYYCARRYYYGTGPADWYFDVWGTGTLVTVSS VL: DIKMTQSPSSMYASLRERVTITCKASQDINSYLSWFQQKPGKSPKTLIYRANRLVDGVPSRFSGSGSGQDYSLTISSLEYEDMGIYYCLQCDEFPLTFGAGTKLELKR
3. H2L2-C91S_V102S (antibody, V domains shown) VH: QVQLVQSGAEVKKPGASVKVSCKASGYSFTGYFMHWVRQAPGQGLEWMGNIYPYNGVSNYNQRFKARVTMTTDTSTSTAYMELRSLRSDDTAVYYCARRYYYGTGPADWYFDSWGQGTLVTVSS VL: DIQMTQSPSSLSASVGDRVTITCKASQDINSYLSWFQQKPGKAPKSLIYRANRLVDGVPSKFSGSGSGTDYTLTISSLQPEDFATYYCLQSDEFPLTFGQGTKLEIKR
4. H2L2-C91S_P100B_I (antibody, V domains shown) VH: QVQLVQSGAEVKKPGASVKVSCKASGYSFTGYFMHWVRQAPGQGLEWMGNIYPYNGVSNYNQRFKARVTMTTDTSTSTAYMELRSLRSDDTAVYYCARRYYYGTGIADWYFDVWGQGTLVTVSS VL: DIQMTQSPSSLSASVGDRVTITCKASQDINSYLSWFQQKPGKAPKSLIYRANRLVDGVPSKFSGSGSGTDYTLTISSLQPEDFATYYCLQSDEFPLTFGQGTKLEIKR
5. H2L2-C91S_P100B_F (antibody, V domains shown) VH: QVQLVQSGAEVKKPGASVKVSCKASGYSFTGYFMHWVRQAPGQGLEWMGNIYPYNGVSNYNQRFKARVTMTTDTSTSTAYMELRSLRSDDTAVYYCARRYYYGTGFADWYFDVWGQGTLVTVSS VL: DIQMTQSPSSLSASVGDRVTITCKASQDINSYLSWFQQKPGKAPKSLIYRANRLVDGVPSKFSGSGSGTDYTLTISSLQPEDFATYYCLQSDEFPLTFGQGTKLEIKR
6. H2L2-C91S (antibody, IgG1, V domains shown) VH: QVQLVQSGAEVKKPGASVKVSCKASGYSFTGYFMHWVRQAPGQGLEWMGNIYPYNGVSNYNQRFKARVTMTTDTSTSTAYMELRSLRSDDTAVYYCARRYYYGTGPADWYFDVWGQGTLVTVSS VL: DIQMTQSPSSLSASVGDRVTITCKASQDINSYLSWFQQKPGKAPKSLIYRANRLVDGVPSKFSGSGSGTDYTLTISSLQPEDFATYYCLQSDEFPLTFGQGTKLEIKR

Result:
[5.51, 3.53, 4.22, 4.53, 4.24, 5.14]

Reference for the values: patent US20130142788A1
